- protocol summary: NCI Yeast Anticancer Drug Screen. Data for the cln2 rad14 strain (AID 165);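 also: 0% = growth equal to vehicle treated cultures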
- run conditions: S. cerevisiae cln2 rad14 strain, at 50.0 µM, stronger effect = higher value
About 79,000 compounds went through this panel and 15% of them were active in at least one assay; those are over-represented in the sample as a whole.
measurement kind: growth inhibition (%)
Your answer should be a plain number; it is taken to be in %.

Examples with their reported growth inhibition follow.
>>> value_observed("O=C(O)C(c1ccccc1)C1(O)CC2CCC1C2 (stereo unspecified)")
-10.7
>>> value_observed("Cc1cccc(CNc2ccc(S(=O)(=O)c3ccc(NCc4cccc(C)n4)cc3)cc2)n1")
-8.95
>>> value_observed("C=C1c2nc3ccccc3n2C=C(c2ccccc2)N1c1ccc([N+](=O)[O-])cc1")
13.6
>>> value_observed("CCOC(=O)NC(CC)c1ccc2oc3ccccc3c2c1 (stereo unspecified)")
-4.15
>>> value_observed("CN(c1ccccc1Cl)S(=O)(=O)c1ccccc1[N+](=O)[O-]")
-18
>>> value_observed("CC(=O)NC1CON(C(C)=O)C1=O (stereo unspecified)")
-54.4
>>> value_observed("O=C(c1ccccc1)N1OCCC1Nc1ccc(Br)cc1 (stereo unspecified)")
13.6
>>> value_observed("CCC(=O)CCN(CC)CC")
-5

Look at this molecule and give its reported growth inhibition. COC1=C(C(c2cc(OC)c(OC)c(OC)c2)c2cc3c(cc2OC)OCO3)C(=O)OC1 (stereo unspecified) 6.25

Look at this molecule and give its reported growth inhibition. "COc1ccc(/C=N/n2cnc3c(c2=O)S/C(=C2/SC(=S)N(c4ccc(C)cc4)C2=O)N3c2ccccc2)cc1" -75

Look at this molecule and give its reported growth inhibition. "Nc1ncc2[nH]c(I)nc2n1" 0.7
